Origin of values: patent US20230235029A1

# TESTED_ON: T1, Marburg virus Angola GP on rVSV pseudotype (Marburg virus, Angola strain, UniProt Q1PD50 19-681)
# T1 sequence: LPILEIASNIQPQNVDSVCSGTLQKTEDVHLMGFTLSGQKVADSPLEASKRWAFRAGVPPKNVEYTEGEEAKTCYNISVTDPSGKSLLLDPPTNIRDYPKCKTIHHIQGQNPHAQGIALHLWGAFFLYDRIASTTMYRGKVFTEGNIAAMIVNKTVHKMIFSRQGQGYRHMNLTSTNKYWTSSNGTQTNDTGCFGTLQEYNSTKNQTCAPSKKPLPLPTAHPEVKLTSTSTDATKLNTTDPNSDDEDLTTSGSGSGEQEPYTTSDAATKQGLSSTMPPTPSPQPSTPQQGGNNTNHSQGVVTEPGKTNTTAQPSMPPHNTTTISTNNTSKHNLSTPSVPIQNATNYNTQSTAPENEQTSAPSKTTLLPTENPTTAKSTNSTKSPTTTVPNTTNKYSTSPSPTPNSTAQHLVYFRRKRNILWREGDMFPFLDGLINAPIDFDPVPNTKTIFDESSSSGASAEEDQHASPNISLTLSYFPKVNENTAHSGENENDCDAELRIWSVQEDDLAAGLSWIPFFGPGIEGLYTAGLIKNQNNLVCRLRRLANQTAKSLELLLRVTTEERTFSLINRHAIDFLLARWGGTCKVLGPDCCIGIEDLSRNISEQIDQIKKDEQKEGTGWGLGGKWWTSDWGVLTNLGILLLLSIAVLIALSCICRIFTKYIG
# ASSAY_NAME: cell-based or functional assay
Parameter: NT50. Scope: all listed entries.
Report the value in µg/mL with no unit label.

In the examples that follow, each entry is paired with its recorded NT50.
{"BINDER": "R45 (antibody, V domains shown) VH: EVQLVESGGGLAKPGGSLRLSCAASGFTFGDHWMSWVRQAPGNGLQWISAIDRAGGSTFYADSVKGRFTISRENAKNTLYLQIDSLRPEDTAVYFCARDQGRTVGYLDYWGQGVLVTVSS VL: QSALTQPRSVSGSPGQSVTISCTGTSSDIGSYTYVSWYRQHPGTAPKLIIYDVDERPSGVSYRFSGSKSGNTASLTISGLQAEDEADYYCSSYAGRNTWVFGGGTRLTVL", "PARAMETER": "NT50", "UNIT_ABBREVIATION": "µg/mL", "QUANTITATIVE_RESULT": 0.1}
{"BINDER": "R29 (antibody, V domains shown) VH: EVQLVESGAGLVQPGGSLRLSCIASGFTFSNSWMTWVRQAPGRGLEWIARIKRKADGETADYAASVKGRFTISRDDSKNTLYLQMNSLKTEDTAVYYCTTYNWNFNFDYWGQGVLVTVSS VL: DIQMTQSPSSLSASVGDRVTITCRASQDISPYLNWYQQKPGKAPKLLIYYGNRLESGVPSRFSGSGSGTDLTLTISSLQPEDFATYYCQQYYRLPLTFGGGTKVEIK", "PARAMETER": "NT50", "UNIT_ABBREVIATION": "µg/mL", "QUANTITATIVE_RESULT": 0.02}

# next binder below
Complete the entry with NT50 for R83 (antibody, V domains shown) VH: QVQLQESGPGLVKPSETLSLTCAVSGASISDYWWNWIRQPPGKGLEWIGEIYGYSGSTYYNPSLKSRVTISKDASKKQLSLRLTSVTAADTAIYYCARDPLNQDAFDFWGLGLRVTVSS VL: QSALTQPPSVSGSPGQSVTISCTGTSSDIGGYTYISWYQQYPGKAPKLMIYDVSKRPSGVSDRFSGSKSGNTASLTVSGLQAEDEADYYCSSYGGRKTLLFGGGTRLTVL
0.03
